PROTOCOL NOTES: yeast display, Sf9 membrane polyspecificity reagent, FACS + sequencing; frameworks hold sequencing errors
ASSAY ENDPOINT: polyreactivity (PSR sort gate)

INSERT INTO results (sequence_record, result) VALUES
  ('QVQLVESGGGLVQAGGSLRLSCAASGSIFGVNALGWYRQAPGKERELVASITGGDSTNYADSVKGRFTISRDNAKNTVYLQMNSLKPEDTAFYYCAKDHYYRYEEGDYWGQGTQVTVSS', 'low polyreactivity'),
  ('QVQLVESGGGLVQAGGSLRLSCAASGRTFYANAMGWYRQAPGKERELVAAISSNGGSTYYADSVKGRFTISRDNAKNTVYLQMNSLKPEDTAVYYCAVVSRYKAWRKYDYWGQGTQVTVSS', 'high polyreactivity'),
  ('QVQLVESGGGLVQAGGSLRLSCAASGRTFHGYAMGWYRQAPGKERELVAAINASGGRTYYADSVKGRFTISRDNAKNTVYLQMNRLKPEDTAVYYCAVYSASFRYGLAYDYWGQGTQVTVSS', 'high polyreactivity'),
  ('QVQLVESGGGLVQAGGSLRLSCAASGSIFPYYTMGWYRQAPGKERELVAAINYSGASTYYADSVKGRFTISRDNAKNTVYLQMNSLKPEDTAVYYCAADYPPLYRKYVYWGQGTQVTVSS', 'low polyreactivity'),
  ('QVQLVESGGGLVQAGGSHRLSCAASGLTFFPYAMGWYRQAPGKERELVAAITTSDGTTYYADSVKGRFTISRDNAKNTVYLQMNSLKPEDTAVYYCAAVYSPRSVWWYDYWGQGTQVTVSS', 'low polyreactivity'),
  ('QVQLVESGGGLVQAGGSLRLSCAASGFIFYRNAMGWYRPAPGKERELVAAINRGGSTYYADSVKGRFTISRDNAKNTVYLQMNSLKPEDTAVYYCAAYHLRPSRYDYWGQGTQVTVSS', 'high polyreactivity'),
  ('QVQLVESGGGLVQAGGSLRLSCAASGSIFALYAMGWYRQAPGKERELVAAISWRAGGTYYADSVKGRFTISRDNAKNTVYLQMNSLKPEDTAVYYCAAEISLYYYGDYEYWGVGTQVTVSS', 'high polyreactivity'),
  ('QVQLVESGGGLVQAGGSLRLSCAASGITFGSYDMGWYRQAPGKERELVAAIDSDGGTYYADSVKGRFTISRDNAKNTVYLQMNSLKPEDTAVYYCAALLRSFPPYSFYYWGQGTQVTVSS', 'high polyreactivity'),
  ('QLQLVESGGGLVQAGGSLRLSCAASGLTFSYYAMGSYRQAPGKERELVAAITSSGGNTYYADSVKGRFTISRDNANNTVYLQMNSMKPEDTAVYYCAAERYQSFCYGKRPRRPRYDYWGLGTQVTVSS', 'high polyreactivity'),
  ('KVQLVESGGGLVQAGGSLRLSCAASGIIFNLYAMGWSRQAPGKERELVAAITSSGTSTYYADSVKGRFTISRDNAKNTLYLQMNSLKPEDTAVYYCAADRGFYYFVEYDYWGQGTQVTVSS', 'high polyreactivity');

I have this sequence here, QVQLVESGGGLVQAGGSLRLSCAASGRTFGVNAMGWYRQAPGKERELVAAISRSTGSTYYADSVKGRFTISRDNAKNTVYLQMNSLKPEDTAVYYCARDVYYRGYKYGYWGQGTQVTVSS , and I need its recorded polyreactivity (PSR sort gate).
high polyreactivity

Same question, QVQLVESGGGLVQAGGSLRLSCAASGRIFYYYAMGWYRQAPGKERELVATISRAGITNYADSVKGRFTISRDNAKNTVYLQMNSLKPEDTAVYYCADTFYPWRYNYEYWGQGTQVTVSS this time
high polyreactivity

Same question, QVQLVESGGGIVQAGGSLRLSSAASGSTFYTKSIGWYIQAPGKERELVAAISGSGGSTYYADSVKGRFTISRDTAKNTVYLQMISLKPEDTAVYSCAARSRYYDTRFDYWGQGTQVTVSS this time
low polyreactivity

Same question, QVQLVESGGGLVQAGGSLRLSCAASGRTFTYYGMGWYRQAPGKERELVAAISGGGDTNYADSVKGRFTISRDNAKNTVYLQMNSLKPEDTAGYYCAAKRRYYWDYWFYEYDYWGQGTQVTVSS this time
low polyreactivity

Same question, QVHLVDSGGGLVLAGGSLRLSCAASGRNFERYAMGWYRKAPGKERELVAAISSSATRTYYADSVKGRFTISRDNAKNTVYLQMNSLKPEDTAVYYCAAKGAARDGSSEYNYWGQGTQVTVSS this time
high polyreactivity

Same question, QVQLVESGGGLVQAGGSLRLSCAASGATFERNAMGWYRQAPGKERELVAAITGSGGRTYYADSVKGRFTISRDNAKNTVYLQMNSLKPEDTAVYYCAKDTYYPSSRYNRYYYWGQGTQVTVSS this time
high polyreactivity

Same question, HVQLQESGGGLVQAGGSLRLSCAASGSIFQATYMGWYRQAPGKEREFVASITYGSITNYADSVKGRFTIGRDNPKDTLYLQMNSLKPEDTAVYYCAVDRHYIPAFHYWGQGTQVTVSS this time
low polyreactivity

Same question, QDQLVESGGGLVQAGGSLRLSCADYGNLVYNAKGWSRQAPGKERELVAAISARGGRTYYADSVKGRFTISRDNAKNTVYLQMNSLNPEDTAVYYCAARSYRLDSYYWGQGTQVSVSS this time
high polyreactivity

Same question, PVQLVESGGGLVQAGGSLRLSCAASGRTFGLNGKGWYRQSPGKEREFVATITGSGTSTYYADSVKGRFTISRDNAKNTVYLQMNSLKPEDSAVYFCAALSGLWGYHYYHEYYYWGQGTQVTVSS this time
low polyreactivity

Same question, QFQIVESGGGLVQAGGSLRLSCAASGSTFRTNAMGWYRQAPGKERELVARIRYSVGSTYYADSVKGRFTISRDNAKNTVYLQMNSLKPEDTAVYYCAAENQRVGTFREHDSWGQGTQVTVSS this time
low polyreactivity

Same question, QVQLVESGGGLGQAGASLRLSSAATGFTFRPNAMGWYRQAPGKERELVAAISWRGTRTSYADSVKGRFTISRDNAKNTVYLQMNSLKPEDTAVYSCAARLVRRYDYDYWGQGTQVTVSS this time
high polyreactivity
